- tgt: sGC α1/β1 heterodimer (Homo sapiens, UniProt Q02108+Q02153)
- Construct: expressed in transfected cells
- Sequence (Q02108 whole entry): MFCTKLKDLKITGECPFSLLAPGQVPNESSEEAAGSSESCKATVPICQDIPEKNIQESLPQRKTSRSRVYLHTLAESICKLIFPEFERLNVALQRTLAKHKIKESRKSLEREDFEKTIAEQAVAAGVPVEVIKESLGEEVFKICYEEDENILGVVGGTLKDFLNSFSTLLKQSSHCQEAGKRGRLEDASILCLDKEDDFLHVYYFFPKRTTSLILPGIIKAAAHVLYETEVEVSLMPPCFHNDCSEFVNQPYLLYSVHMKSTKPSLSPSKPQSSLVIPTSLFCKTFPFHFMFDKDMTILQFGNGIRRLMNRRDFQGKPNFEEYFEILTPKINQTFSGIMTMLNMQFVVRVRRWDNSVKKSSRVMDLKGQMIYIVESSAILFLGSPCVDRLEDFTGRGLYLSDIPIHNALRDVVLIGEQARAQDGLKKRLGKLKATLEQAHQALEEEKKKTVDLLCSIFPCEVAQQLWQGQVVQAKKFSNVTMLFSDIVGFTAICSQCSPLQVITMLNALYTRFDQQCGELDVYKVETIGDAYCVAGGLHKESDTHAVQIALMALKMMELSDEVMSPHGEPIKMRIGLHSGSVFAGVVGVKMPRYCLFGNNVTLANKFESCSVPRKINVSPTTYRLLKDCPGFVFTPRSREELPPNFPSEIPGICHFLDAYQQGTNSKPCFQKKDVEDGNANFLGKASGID
- Sequence (Q02153 whole entry): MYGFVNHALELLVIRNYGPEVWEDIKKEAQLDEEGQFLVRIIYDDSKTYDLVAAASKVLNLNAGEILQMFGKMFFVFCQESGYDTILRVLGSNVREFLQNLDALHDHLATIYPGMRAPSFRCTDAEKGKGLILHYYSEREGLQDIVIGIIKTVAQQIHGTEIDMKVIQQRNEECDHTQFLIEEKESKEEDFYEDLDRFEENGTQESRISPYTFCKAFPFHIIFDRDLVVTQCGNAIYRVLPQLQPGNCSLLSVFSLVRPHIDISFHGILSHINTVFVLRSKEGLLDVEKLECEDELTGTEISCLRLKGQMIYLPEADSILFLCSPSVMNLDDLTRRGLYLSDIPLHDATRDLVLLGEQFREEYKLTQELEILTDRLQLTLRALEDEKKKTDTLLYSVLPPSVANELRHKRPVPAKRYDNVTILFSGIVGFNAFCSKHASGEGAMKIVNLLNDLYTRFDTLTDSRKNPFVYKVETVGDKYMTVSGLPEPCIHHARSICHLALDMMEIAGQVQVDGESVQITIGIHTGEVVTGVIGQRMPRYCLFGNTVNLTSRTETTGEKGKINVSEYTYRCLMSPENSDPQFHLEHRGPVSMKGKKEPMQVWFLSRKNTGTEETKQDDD
- assay.text: Cell-Based sGC Functional Assay (CASA Assay), cGMP generation in CHO-K1/sGC cells;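 note: reference Compound A is a published heme-dependent sGC activator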
- condition.summary: maximum cGMP production of Compound A set to 100% activation, read-out: % Act. (percent activation relative to Compound A)
measurement.name: Emax (%)

// below: answered compounds
INSERT INTO results (compound, tgt, measurement_name, measured_number) VALUES
  ('Cc1nc2c(CCC(F)(F)C(F)(F)F)nc(-c3nc(O)c4c(n3)NC(=O)[C@@]4(C)c3ccc(F)cc3)cn2n1 [Example 133B]', 'sGC α1/β1 heterodimer (Homo sapiens, UniProt Q02108+Q02153)', 'Emax', 87),
  ('Nc1nc(-c2cn3ncnc3c(CCC(F)(F)F)n2)nc2c1C(c1ccc(Cl)cn1)(C1CC1)C(=O)N2 (centres unmarked) [Example 82A]', 'sGC α1/β1 heterodimer (Homo sapiens, UniProt Q02108+Q02153)', 'Emax', 125),
  ('CC1(c2ccc(Cl)cn2)C(=O)Nc2nc(-c3cn4ncnc4c(CCCC(F)(F)F)n3)nc(O)c21 (centres unmarked) [Example 134A]', 'sGC α1/β1 heterodimer (Homo sapiens, UniProt Q02108+Q02153)', 'Emax', 134),
  ('CCCc1nc(-c2nc(N)c3c(n2)NC(=O)C3(c2ccc(F)c(F)c2)C2CC2)cn2ncnc12 (centres unmarked) [Example 58A]', 'sGC α1/β1 heterodimer (Homo sapiens, UniProt Q02108+Q02153)', 'Emax', 169),
  ('O=C1Nc2nc(-c3cn4ncnc4c(CCCC(F)(F)F)n3)nc(O)c2C1(c1ccc(F)cn1)C1CC1 (centres unmarked) [Example 150A]', 'sGC α1/β1 heterodimer (Homo sapiens, UniProt Q02108+Q02153)', 'Emax', 74),
  ('Cc1nnc(C2(C)C(=O)Nc3nc(-c4cn5ncnc5c(CCC(F)(F)C(F)(F)F)n4)nc(N)c32)o1 (single isomer, unassigned) [Example 97B]', 'sGC α1/β1 heterodimer (Homo sapiens, UniProt Q02108+Q02153)', 'Emax', 106),
  ('CC1(c2ccc(Cl)c(F)c2)C(=O)Nc2nc(-c3cn4ncnc4c(CCC(F)(F)C(F)(F)F)n3)nc(O)c21 (centres unmarked) [Example 121B]', 'sGC α1/β1 heterodimer (Homo sapiens, UniProt Q02108+Q02153)', 'Emax', 222),
  ('CC1(c2ccc(Cl)cc2)C(=O)Nc2nc(-c3cn4ncnc4c(CCCC(F)(F)F)n3)nc(N)c21 (centres unmarked) [Example 29A]', 'sGC α1/β1 heterodimer (Homo sapiens, UniProt Q02108+Q02153)', 'Emax', 101),
  ('CCCCc1nc(-c2nc(N)c3c(n2)NC(=O)C3(c2ccc(Cl)cn2)C2CC2)cn2ncnc12 (centres unmarked) [Example 68A]', 'sGC α1/β1 heterodimer (Homo sapiens, UniProt Q02108+Q02153)', 'Emax', 113),
  ('CC1(c2ccc(C(F)(F)F)cn2)C(=O)Nc2nc(-c3cn4ncnc4c(CCCC(F)(F)F)n3)nc(N)c21 (centres unmarked) [Example 25B]', 'sGC α1/β1 heterodimer (Homo sapiens, UniProt Q02108+Q02153)', 'Emax', 131);

1: CC1(c2cncc(F)c2)C(=O)Nc2nc(-c3cn4ncnc4c(CCC(F)(F)C(F)(F)F)n3)nc(O)c21 (centres unmarked) [Example 125A]
2: CCCCc1nc(-c2nc(O)c3c(n2)NC(=O)C3(C)c2ccc(F)cn2)cn2ncnc12 (centres unmarked) [Example 155B]
Given 1 and 2 , report the one with the higher recorded Emax. Write down the label of the entry you select.
2

I: CC1(c2ccccn2)C(=O)Nc2nc(-c3cn4ncnc4c(CCCC(F)(F)F)n3)nc(N)c21 (centres unmarked) [Example 36B]
II: CC1(c2ccc(Cl)c(F)c2)C(=O)Nc2nc(-c3cn4ncnc4c(CCCC(F)(F)F)n3)nc(N)c21 (centres unmarked) [Example 28B]
Given I and II , report the one with the higher recorded Emax. Write down the label of the entry you select.
II

a: Nc1nc(-c2cn3ncnc3c(CCC(F)(F)F)n2)nc2c1C(c1ccc(F)c(F)c1)(C1CC1)C(=O)N2 (centres unmarked) [Example 83A]
b: Nc1nc(-c2cn3ncnc3c(CCCC(F)(F)F)n2)nc2c1C(c1ccc(F)cn1)(C1CC1)C(=O)N2 (centres unmarked) [Example 34A]
c: CC1(c2ccccn2)C(=O)Nc2nc(-c3cn4ncnc4c(CCCC(F)(F)F)n3)nc(O)c21 (centres unmarked) [Example 145B]
Provide the items ranked by increasing Emax. Please respond with the labels ordered as the question requires.
c, a, b
(c: 64%, a: 100%, b: 235%)

a: C[C@@]1(c2ccc(F)cc2)C(=O)Nc2nc(-c3cn4ncnc4c(CCC(F)(F)F)n3)nc(O)c21 [Example 151A]
b: C[C@@]1(c2ccc(F)cc2)C(=O)Nc2nc(-c3cn4ncnc4c(CCC(F)(F)C(F)(F)F)n3)nc(N)c21
Given a and b , report the one with the higher recorded Emax. Write down the label of the entry you select.
b
